System: MCF7 breast
experimentSummary: NCI-60 one-dose screen, 48 h (100 = growth as untreated, 0 = no growth, -100 = all killed)
appliedConditions: 10 µM
The panel holds about 83,000 compounds, 20% with a hit somewhere; the sample as a whole holds those more often.

>  <molecule>
O=C1NC2C=CC=CC2/C1=C1/SC(=S)N(C2CC(=O)N(c3ccc(Br)cc3)C2=O)C1=O (centres undefined)

>  <target>
MCF7 breast

>  <growth (%)>
45.7

$$$$
>  <molecule>
O=C(c1ccc(Cl)cc1)C(c1c[nH]c2ccccc12)c1c[nH]c2ccccc12

>  <target>
MCF7 breast

>  <growth (%)>
-69.3

$$$$
>  <molecule>
CCOC(=O)C1=C(N)N(c2ccc(C)cc2)C2=C(C(=O)CC(C)(C)C2)C1c1ccccc1Br (centres undefined)

>  <target>
MCF7 breast

>  <growth (%)>
56.6

$$$$
>  <molecule>
Cn1cc(/C=C(/SS/C(=C/c2cn(C)c3cccc(C(=O)O)c23)C(=O)O)C(=O)O)c2c(C(=O)O)cccc21

>  <target>
MCF7 breast

>  <growth (%)>
92.6

$$$$
>  <molecule>
COc1ccc(C(=O)COc2ccc(NC(=O)Nc3ccc(Cl)c(C(F)(F)F)c3)cc2)cc1

>  <target>
MCF7 breast

>  <growth (%)>
17.1

$$$$
>  <molecule>
COC(=O)CNC(=O)COc1c(OC)c(OC)cc2oc(-c3cccc(C(=O)Nc4ccc(Cl)cc4)c3)cc(=O)c12

>  <target>
MCF7 breast

>  <growth (%)>
22.5

$$$$
>  <molecule>
COc1cc(-c2nc3ccc(C)cc3[nH]2)ccc1OCc1nnc(-c2ccccc2Br)o1

>  <target>
MCF7 breast

>  <growth (%)>
44.4

$$$$
>  <molecule>
Cc1ccc(S(=O)(=O)N2CCN(S(=O)(=O)c3oc(-c4ccccc4)nc3C#N)CC2)cc1

>  <target>
MCF7 breast

>  <growth (%)>
47.6

$$$$
>  <molecule>
O=C(CC(=O)Nc1ccc(Oc2ncnc3scc(Nc4n[nH]c(=S)s4)c23)cc1)Nc1ccc(Br)cc1

>  <target>
MCF7 breast

>  <growth (%)>
86.8

$$$$
>  <molecule>
COc1cc(C2CC(c3ccccc3)=Nc3c(N)nc(N)nc3N2)ccc1Oc1nc(NCCO)nc(N2CCOCC2)n1 (centres undefined)

>  <target>
MCF7 breast

>  <growth (%)>
83

$$$$
>  <molecule>
COc1ccc(C2c3sc4ccc(C)cc4c3Oc3nc[nH]c(=O)c32)cc1 (centres undefined)

>  <target>
MCF7 breast

>  <growth (%)>
69.6

$$$$
>  <molecule>
CC1[C@H]2[C@H](C[C@H]3[C@@H]4CC=C5c6sc(Nc7cccc(Cl)n7)nc6CC[C@]5(C)[C@H]4CC[C@@]32C)O[C@]12CC[C@@H](C)CO2 (some centres undefined)

>  <target>
MCF7 breast

>  <growth (%)>
-66.6

$$$$
>  <molecule>
O=C(Nc1ccc(OCC(=O)c2ccc(Cl)cc2)cc1)Nc1ccc(Cl)c(C(F)(F)F)c1

>  <target>
MCF7 breast

>  <growth (%)>
51.4

$$$$
>  <molecule>
C#CCOc1cc(N(CC)CC)ccc1C(C(=O)NC(C)(C)C)N(C(=O)C1CCc2cc(F)ccc2O1)c1ccc(F)cc1F (centres undefined)

>  <target>
MCF7 breast

>  <growth (%)>
17.5

$$$$
>  <molecule>
O=C(Nc1ccc(Oc2ncnc3scc(Nc4n[nH]c(=S)s4)c23)cc1)C1(C(=O)Nc2cccc(C(F)(F)F)c2)CC1

>  <target>
MCF7 breast

>  <growth (%)>
23.3

$$$$
>  <molecule>
Cn1cc(-c2nnc(N)nc2-c2c[nH]c3ccc(F)cc23)c2cc(Br)cnc21

>  <target>
MCF7 breast

>  <growth (%)>
27.7

$$$$
>  <molecule>
COc1ccc(C(=O)COc2ccc(NC(=O)Nc3ccccc3)cc2)cc1

>  <target>
MCF7 breast

>  <growth (%)>
67.2

$$$$
>  <molecule>
Cc1ccc2c(c1)C(=O)/C(=C/c1ccc([N+](=O)[O-])cc1)S2

>  <target>
MCF7 breast

>  <growth (%)>
3.81

$$$$
>  <molecule>
O=C(CC(=O)Nc1ccc(Oc2ncnc3scc(Nc4n[nH]c(=S)s4)c23)cc1)Nc1ccc(Cl)cc1

>  <target>
MCF7 breast

>  <growth (%)>
11.7

$$$$
>  <molecule>
CCOC(=O)c1ccc(NC(=O)CSC(CC(=O)c2sc(Nc3ccccn3)nc2C)c2ccccc2F)cc1 (centres undefined)

>  <target>
MCF7 breast

>  <growth (%)>
-17.3

$$$$
>  <molecule>
O=C(CN1CCN(c2ncnc3c2cnn3-c2ccccc2)CC1)Nc1ccc(Cl)cc1

>  <target>
MCF7 breast

>  <growth (%)>
27.6

$$$$
>  <molecule>
C#C[C@]1(O)CC[C@H]2[C@@H]3CC=C4c5sc(Nc6ccc(C(F)(F)F)cn6)nc5CC[C@]4(C)[C@H]3CC[C@@]21C

>  <target>
MCF7 breast

>  <growth (%)>
-28.7

$$$$
>  <molecule>
Cn1cc(-c2nnc(N)nc2-c2c[nH]c3ccccc23)c2cc(Br)cnc21

>  <target>
MCF7 breast

>  <growth (%)>
14

$$$$
>  <molecule>
COc1ccc(OC)c(-n2cc(C#N)c(N)c2C(=O)c2ccc(Cl)cc2Cl)c1

>  <target>
MCF7 breast

>  <growth (%)>
16.1

$$$$
>  <molecule>
CC(C)(C)c1cc(/C=C2\S/C(=N/c3ncn[nH]3)NC2=O)cc(C(C)(C)C)c1O

>  <target>
MCF7 breast

>  <growth (%)>
8.22

$$$$
>  <molecule>
C#C[C@]1(O)CC[C@H]2[C@@H]3CC=C4c5sc(Nc6ccc(N(C)C)cc6)nc5CC[C@]4(C)[C@H]3CC[C@@]21C

>  <target>
MCF7 breast

>  <growth (%)>
-36.2

$$$$
>  <molecule>
COc1cccc(C(=O)CSc2nc(-c3ccc(OCc4ccccc4)c(OC)c3)c(C#N)c(=O)[nH]2)c1

>  <target>
MCF7 breast

>  <growth (%)>
91.3

$$$$
>  <molecule>
COc1ccc(-n2c(SCC(=O)NNS(=O)(=O)c3ccccc3)nc3ccc(Cl)cc3c2=O)cc1

>  <target>
MCF7 breast

>  <growth (%)>
83.2

$$$$
>  <molecule>
COc1ccc2[nH]cc(-c3nc(N)nnc3-c3cn(C)c4ncc(Br)cc34)c2c1

>  <target>
MCF7 breast

>  <growth (%)>
4.79

$$$$
>  <molecule>
CC1(C)CC(=O)C2=C(C1)N(Cc1ccc(C(=O)O)cc1)C1=C(C(=O)CC(C)(C)C1)C2c1ccc(Cl)cc1

>  <target>
MCF7 breast

>  <growth (%)>
89.6

$$$$
>  <molecule>
C#C[C@]1(O)CC[C@H]2[C@@H]3CC=C4c5sc(Nc6cc(C)cc(C)n6)nc5CC[C@]4(C)[C@H]3CC[C@@]21C

>  <target>
MCF7 breast

>  <growth (%)>
-89.7

$$$$
>  <molecule>
O=[N+]([O-])c1cccc(-c2nnc3c(/C=C/c4ccccc4O)nc4ccccc4n23)c1

>  <target>
MCF7 breast

>  <growth (%)>
22.1

$$$$
>  <molecule>
COc1cc(Nc2nc(O)c(/C=C3\C=Nc4ccccc43)s2)cc(OC)c1OC

>  <target>
MCF7 breast

>  <growth (%)>
-23.7

$$$$
>  <molecule>
COc1cc2oc(-c3cccc(C(=O)Nc4ccc(Cl)cc4)c3)cc(=O)c2c(OCCNC(=O)[C@@H](N)CO)c1OC

>  <target>
MCF7 breast

>  <growth (%)>
-51.8

$$$$

###

Tested on: MDA-MB-468 breast
experimentSummary: NCI-60 one-dose screen, 48 h (100 = growth as untreated, 0 = no growth, -100 = all killed)
appliedConditions: 10 µM unless noted
Compounds without any hit were thinned out: in the full panel of roughly 83,000, 20% have a hit.
Entries and their measured growth follow.
recordedMetric: growth (%)

>  <compound>
Cc1ccc(-n2nc(C(C)(C)C)cc2NC(=O)NCc2cc(F)ccc2Oc2ccc3c(cnn3CCO)c2)cc1

>  <val>
23.5

$$$$
>  <compound>
CC1(C)CC(=O)c2cc3c(N)c(C(=O)Nc4ccc(Cl)cc4)sc3nc2C1

>  <val>
110

$$$$
>  <compound>
CN1CCN(C(=O)[C@]23CCC(C)(C)C[C@H]2C2=CC[C@@H]4[C@@]5(C)C/C(=C/c6ccncc6)C(=O)C(C)(C)[C@@H]5CC[C@@]4(C)[C@]2(C)CC3)CC1

>  <val>
44.6

$$$$
>  <compound>
CCOC(=O)c1cnc2ccc(OC)cc2c1Nc1cccc(S(=O)(=O)NC)c1

>  <val>
113

$$$$
>  <compound>
Fc1ccc2[nH]cc(-c3nc(-c4c[nH]c5c(Cl)nccc45)cs3)c2c1

>  <val>
9.87

$$$$
>  <compound>
NC(N)=Nc1nc2ccccc2n2c1nc1ccccc12

>  <val>
35.1

$$$$
>  <compound>
CO[C@H]1/C=C/O[C@@]2(C)Oc3c(C)c(O)c4c(O)c(c5c(nc6cc(C)ccn65)c4c3C2=O)NC(=O)/C(C)=C\C=C\[C@H](C)[C@H](O)[C@@H](C)C(O)[C@@H](C)[C@H](OC(C)=O)[C@@H]1C (stereo partly drawn)

>  <val>
105

$$$$
>  <compound>
CN1CCN(CCCNC(=O)c2c3c(n4ccccc24)C(=O)c2ncccc2C3=O)CC1

>  <val>
-59.9

$$$$
>  <compound>
CSC1=Nc2c(c(C)c(-c3ccccc3)n2CCCN2CCCCC2)C2=NC(=O)C[C@H](C)N12

>  <val>
-18.6

$$$$
>  <compound>
COc1cc(/C=C/C(=O)c2cc(OC)c(OC)c(OC)c2)ccc1Oc1nc(NCCO)nc(N2CCOCC2)n1

>  <val>
-20.8

$$$$
>  <compound>
COC1=CC(c2ccc[nH]2)=N/C1=C\c1[nH]c(C)c(CCCn2cc(CCCCCCCCC[C@@H]3Cc4cc(O)ccc4C4CC[C@]5(C)[C@@H](O)CC[C@H]5C43)nn2)c1C (stereo partly drawn)

>  <val>
30.1

$$$$
>  <compound>
O=C(N/N=C/c1cc(Cl)ccc1O)C(=O)N/N=C/c1cc(Cl)ccc1O

>  <val>
61.3

$$$$
>  <compound>
COc1ccc(-c2nc(SCC(C)C)nc(Nc3ccc(C(=O)O)cc3)c2C#N)cc1

>  <val>
91.3

$$$$
>  <compound>
COc1ccc(-c2nn(-c3cccc(NC(=O)Nc4cc(C(F)(F)F)cc(C(F)(F)F)c4)c3)cc2-c2ccncc2)cc1Cl

>  <val>
17.7

$$$$
>  <compound>
C#C[C@]1(O)CC[C@H]2[C@@H]3CC[C@H]4CC(F)(F)CC[C@]4(C)[C@H]3CC[C@@]21C

>  <val>
88.2

$$$$
>  <compound>
OC(CBr)CCBr (stereo not drawn)

>  <val>
97.4

$$$$
>  <compound>
NCCN1CCNCC1

>  <val>
95.2

$$$$
>  <compound>
COc1ccc(NC(=O)[C@@H]2C[C@H]2c2ccccc2)c(C(N)=O)c1

>  <val>
101

$$$$
